System: ACHN renal
Assay: NCI-60 one-dose screen, 48 h (100 = growth as untreated, 0 = no growth, -100 = all killed)
Conditions: 10 µM unless noted
The panel holds about 83,000 compounds, 20% with a hit somewhere; the sample as a whole holds those more often.
Examples of compounds with documented growth follow.
Write the value in % as a bare number.

Record `COc1ccc(S(=O)(=O)NCCCNc2nccc(-n3ccc4cccnc43)n2)cc1` , field growth: 94.6

Short answer for CCOC(=O)c1ccc(NC(=O)N2CC(C)OC(C)C2)cc1 (centres undefined) : growth was 96.7

Lab note: measured growth of CCC(=O)OC1=CN2C(=NC(c3ccc(N)cc3)=CC2c2cc(OC)c(OC)c(OC)c2)S1 (centres undefined) was 60.5

Measured growth, `COc1ccc(-c2cn(-c3cccc(C(=O)/C=C/c4cc(OC)c(OC)c(OC)c4)c3)c(=O)[nH]2)cc1OC` : 81.8

growth in this record for `CC(C)(C)n1cc(-c2ccnc(NCCCNS(=O)(=O)c3ccc(F)cc3)c2)c(-c2cccc(O)c2)n1` : 38.2

The recorded growth for `COc1ccc(S(=O)(=O)n2ccc(-c3ccc4c(c3)CCC(C)(C)O4)n2)cc1OC` is 78

Memo: `O=[N+]([O-])c1ccc(C(c2ccccc2)c2ccccc2)cc1` , reported growth: 90.3

Notebook: `O=C1C(Cl)=C(Nc2ccccn2)C(=O)c2ccccc21` , growth read as 17

Others:
growth in this record for `CC(C)(C)n1cc(-c2ccnc(NCCCNS(=O)(=O)c3ccc(Cl)cc3)c2)c(-c2cccc(O)c2)n1` : 8.91

* * *

Tested on: HOP-92 NSCLC
Test: NCI-60 one-dose screen, 48 h
Conditions: 10 µM unless noted
The panel holds about 83,000 compounds, 20% with a hit somewhere; the sample as a whole holds those more often. Activity calls are given as the source filed them. The calls were made as follows: active = growth percent below 10; inactive = the rest.
In this exercise, the only acceptable responses are active, inactive

Q. State the result this test recorded for `Cc1cc(N/N=C/c2nc(-c3ccccc3)oc2C)c2cc(Cl)ccc2n1` .
A. active

Q. What was the test verdict on `Cc1cc(N/N=C/c2nc(-c3ccccc3)oc2C)c2cc(Br)ccc2n1` ?
A. inactive

Q. What outcome does the record of this test show for `COc1ccc(-c2c(N)n[nH]c2-c2cc3c(c(OC)c2OC)OCO3)cc1` ?
A. inactive

Q. In this assay, the call recorded for `COc1ccc(S(=O)(=O)Nc2cc(/C=C\c3cc(OC)c(OC)c(OC)c3)cc(OC)c2OC)cc1` was what?
A. inactive

Q. Which result was noted for this compound in the test: `Cc1c(C(=O)/C=C/c2csc3ccccc23)[n+](=O)c2ccccc2n1[O-]`
A. inactive

Q. Hey, what did the test say about `COc1cc(NCCCCCN)c2ncccc2c1` ?
A. inactive

Q. Dear colleague, could you share the recorded outcome for NC1=NN(O)C2=CC([N+](=O)[O-])C=CC2=N1 (configuration not stated) when you have a moment?
A. inactive

Q. Tell me the assay call for `Cc1ccc(-c2nc(C(Cl)Cl)n3nc(-c4ccccc4)cc3n2)cc1` please.
A. active

Moving on to the next compound.
Q. State the result this test recorded for `C=C(C)[C@@H]1C[C@@H]2Cc3cc(Cl)ccc3N1O2` .
A. inactive

* * *

Test system: EKVX NSCLC
Test: NCI-60 one-dose screen, 48 h (100 = growth as untreated, 0 = no growth, -100 = all killed)
Settings: 10 µM unless noted
The panel holds about 83,000 compounds, 20% with a hit somewhere; the sample as a whole holds those more often.
Listing of entries alongside the reported growth.
Value expressed in %; do not type the unit.

Worked examples follow.
The recorded growth for entry `Cc1cc(C2=NNC(=O)Cc3cc4c(cc32)OCCO4)cc(C)c1N` equals 59.6

Data point: CCCCCCCCCCCCCCCCCCNC(=O)[C@H]1CSC(c2cccs2)N1 (stereo not given in full) ; growth = 3.9

Quick note, growth for `O=C(NCc1cn(Cc2cccc(Oc3ccccc3)c2)nn1)c1cccnc1Nc1ccc(F)cc1` landed at 61.8

Short answer for OC(c1cc2cc(Br)ccc2c2cc(Br)ccc12)C1CCCCN1 (stereo not given) : growth was -70.7

Please examine the following record next.
Value of measured growth for the entry CC1CN(c2oc(-c3ccccc3)nc2C#N)CC(C)O1 (stereo not given) : 92.6

These entries and their values trace back to PubChem BioAssay (NCI).
